# method_notes: chemical genetic growth profiling, strain panel (AID 1159580);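 note: tested at 20 µM; growth read once vehicle control cultures reached saturation at 30 °C; lower values mean less growth of the strain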
# condition_summary: S. cerevisiae deletion strains, growth OD, locus YHR027C, strain rpn1
Out of some 5,500 compounds screened, about 2,000 (36%) were called active. Inconclusive results (about 18%) are left out. Cut-off read from the data, not from the text of the source: active = normalized growth mostly below about 0.91 (no sharp cut-off); inconclusive = no clear call, values can overlap the other calls; inactive = mostly above about 0.92. Some of the results follow.
Tick one outcome: active, inactive

compound	class_name
C[C@]12CCC3c4ccc(OC(=O)c5ccccc5)cc4CCC3C1CCC2=O (stereo not given in full)	inactive
O=C(O)C(O)C(O)C(=O)O (stereo not given)	inactive
NC(=O)CS(=O)C(c1ccccc1)c1ccccc1 (stereo not given)	inactive
CC(C)c1nc(N(C)S(C)(=O)=O)nc(-c2ccc(F)cc2)c1/C=C/[C@@H](O)C[C@@H](O)CC(=O)O	inactive

Q: Can you look up the reported call for CC(=O)Oc1ccc2c(c1)CCC1C2CC[C@]2(C)C(=O)CCC12 (stereo not given in full) for me?
Ans: inactive

Q: Can you look up the reported call for CCC(C)C(=O)c1c(O)c(C)c2oc3c(C)c(O)c(C(=O)C(C)CC)c(O)c3c2c1O (stereo not given) for me?
Ans: inactive

Q: Can you look up the reported call for C[C@]12CCC3c4ccc(O)cc4CCC3C1CCC2=O (stereo not given in full) for me?
Ans: inactive

Q: Can you look up the reported call for N[C@@H](C(=O)O)[C@@H](O)[C@H](O)[C@H](O)CO for me?
Ans: inactive

Q: Can you look up the reported call for O=C(O)[C@@H](S)[C@@H](S)C(=O)O for me?
Ans: active

Q: Can you look up the reported call for CN[C@@H]1C(OC2[C@H](O[C@H]3[C@H](O)[C@@H](O)[C@H](N=C(N)N)[C@@H](O)[C@@H]3N=C(N)N)OC(C)[C@]2(O)CO)OC(CO)C(O)C1O (stereo not given in full) for me?
Ans: inactive
